All values here come from patent US20130195901A1.

- Experimental system: HLA-A*0201 class I monomer of the iTopia Epitope Discovery System
- Method notes: iTopia binding ED50
- Condition label: modification not given
Quantity name: EC50 (nM)
Express your answer in nM, writing the number without its unit.

Item YLSEKIFYV [PSMA 288-297 (L289(Nle), I297(Nle))] has what recorded EC50?
524
